Biological target: T1, human CD73-transfected HEK cells (Homo sapiens, UniProt P21589)
T1 construct: expressed in transfected cells; stably transfected in method 5.1)
T1 sequence (P21589 27-549): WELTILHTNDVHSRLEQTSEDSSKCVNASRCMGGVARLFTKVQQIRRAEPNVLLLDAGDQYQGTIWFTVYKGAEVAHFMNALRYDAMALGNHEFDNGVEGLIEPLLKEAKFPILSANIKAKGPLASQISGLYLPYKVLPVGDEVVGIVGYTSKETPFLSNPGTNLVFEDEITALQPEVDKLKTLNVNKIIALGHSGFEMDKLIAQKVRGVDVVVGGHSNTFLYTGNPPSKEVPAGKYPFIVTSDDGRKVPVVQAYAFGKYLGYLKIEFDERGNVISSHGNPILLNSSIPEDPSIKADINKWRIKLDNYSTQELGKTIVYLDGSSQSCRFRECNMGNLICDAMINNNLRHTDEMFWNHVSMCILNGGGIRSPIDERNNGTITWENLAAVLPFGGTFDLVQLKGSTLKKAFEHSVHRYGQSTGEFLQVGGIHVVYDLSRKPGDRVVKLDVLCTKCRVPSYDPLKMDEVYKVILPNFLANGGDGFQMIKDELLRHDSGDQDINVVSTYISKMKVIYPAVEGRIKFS
Assay: Epitope binning by flow cytometry (human IgG hcAb blocks rabbit IgG hcAb)
Type: binding
Settings: epitope assignment on human CD73 from binning
measurement-label: Epitope
Answer using only a numeral; do not append any unit.

Could you share which Epitope value was measured for SB121: CD73-specific alpaca VHH clone, family 5, SEQ ID NO:82; tested as rabbit or human IgG hcAb (antibody, left off: a dimerising Fc or GST, tested as rabbit or human IgG hcAb) heavy: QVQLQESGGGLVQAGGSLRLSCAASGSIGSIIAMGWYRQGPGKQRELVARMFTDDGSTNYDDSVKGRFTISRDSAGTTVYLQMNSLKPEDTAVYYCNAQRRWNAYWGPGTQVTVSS ?
4
